FYI, the data here is from ChEMBL document CHEMBL1141192.

Experiment: Time taken to achieve maximum concentration in dog at 3 mg/kg, po
Format: ADME, organism-based, Canis lupus familiaris
Parameters: dose 3 mg/kg, route oral
Conditions: in vivo
observationType: Tmax (min)
Number only, in min; omit the unit.

(Q) Please look up its Tmax: C[C@H]1O[C@@H](n2cc(-c3ccccc3)c3c(NCC(=O)NC4CC4)ncnc32)[C@H](O)[C@@H]1O
(A) 18

* * *

Assay: AUC (0-24) in rat at 3 mg/kg, po
Assay type: ADME, organism-based
Set-up: time < 24 hr, dose 3 mg/kg, route oral
Settings: plasma
observationType: AUC at 24 h (ng·h/mL)
State just the number; it will be interpreted in ng·h/mL.

(Q) # lookup: AUC at 24 h of C[C@H]1O[C@@H](n2cc(-c3ccccc3)c3c(NCC(=O)NC4CC4)ncnc32)[C@H](O)[C@@H]1O
(A) 981

* * *

Assay: Half life at late phase in rat at 3 mg/kg, po
Type: ADME, organism-based
Parameters: dose 3 mg/kg, route oral
Conditions: in vivo
observationType: half-life (min)
Write it as a number; the unit min goes unstated.

(Q) Item under review: C[C@H]1O[C@@H](n2cc(-c3ccccc3)c3c(NCC(=O)NC4CC4)ncnc32)[C@H](O)[C@@H]1O . Reported half-life?
(A) 312

* * *

Experiment: Solubility in water at pH 7.4
observationType: solubility (µg/mL)
Lab book: enter the figure in µg/mL, no units written.

Before answering, review these 2 worked examples.
# structureSmiles, observationType, reported
rows = [
    ("C[C@H]1O[C@@H](n2cc(-c3ccccc3)c3c(NCC4CC4)ncnc32)[C@H](O)[C@@H]1O", "solubility", 0.1),
    ("C[C@H]1O[C@@H](n2cc(-c3ccccc3)c3c(NCC(=O)NCC4CC4)ncnc32)[C@H](O)[C@@H]1O", "solubility", 12),
]

(Q) // query solubility value for entry CC(C)CNC(=O)CNc1ncnc2c1c(-c1ccccc1)cn2[C@@H]1O[C@H](C)[C@@H](O)[C@H]1O
(A) 7

* * *

Below, each of the compounds is paired with its reported IC50 value.
Target: UniProt P55263
Experiment: Inhibitory activity against recombinant human adenosine kinase
Expressed in nM, but write only the number.

(Q) Given the entry C[C@@H](Nc1ncnc2c1c(-c1ccccc1)cn2[C@@H]1O[C@H](C)[C@@H](O)[C@H]1O)C(=O)NC1CC1 , report its measured IC50.
(A) 2500

(Q) Which IC50 value is on record for COCCNC(=O)CNc1ncnc2c1c(-c1ccccc1)cn2[C@@H]1O[C@H](C)[C@@H](O)[C@H]1O ?
(A) 38

(Q) Please report the recorded IC50 for O=C(CNc1ncnc2c1c(-c1ccccc1)cn2COCCO)Nc1ccc(Cl)cc1 .
(A) 60

(Q) Would you mind telling me what IC50 value was observed for CCN(CC)CCNC(=O)CNc1ncnc2c1c(-c1ccccc1)cn2[C@@H]1O[C@H](C)[C@@H](O)[C@H]1O ?
(A) 210

* * *

Target: Adenosine kinase (Homo sapiens)
Sequence (P55263 whole entry): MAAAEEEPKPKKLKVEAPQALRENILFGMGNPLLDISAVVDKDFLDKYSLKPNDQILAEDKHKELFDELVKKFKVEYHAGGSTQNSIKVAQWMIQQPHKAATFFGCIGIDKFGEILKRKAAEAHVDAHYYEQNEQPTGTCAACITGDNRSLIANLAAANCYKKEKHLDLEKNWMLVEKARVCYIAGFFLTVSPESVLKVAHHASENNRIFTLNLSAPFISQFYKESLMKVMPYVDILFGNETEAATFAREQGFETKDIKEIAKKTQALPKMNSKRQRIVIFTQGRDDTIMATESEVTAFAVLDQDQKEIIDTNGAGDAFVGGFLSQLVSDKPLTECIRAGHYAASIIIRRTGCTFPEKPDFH
Assay: Inhibitory activity against recombinant human adenosine kinase
observationType: pIC50
Just so you know, pIC50 here is -log10 of the concentration in molar units; reply with that number alone.

(Q) Hello, I am looking for reported pIC50 with Adenosine kinase (Homo sapiens) for C[C@H]1O[C@@H](n2cc(-c3ccccc3)c3c(NCC(=O)N(C)C4CC4)ncnc32)[C@H](O)[C@@H]1O . Could you help?
(A) 6.34

(Q) Tell me reported pIC50 for C[C@H](Nc1ncnc2c1c(-c1ccccc1)cn2[C@@H]1O[C@H](C)[C@@H](O)[C@H]1O)C(=O)NC1CC1 , tested with Adenosine kinase (Homo sapiens).
(A) 6.28

(Q) # query: pIC50 | item CCNC(=O)CNc1ncnc2c1c(-c1ccccc1)cn2[C@@H]1O[C@H](C)[C@@H](O)[C@H]1O | system: Adenosine kinase (Homo sapiens)
(A) 7.40
